# protocol text: Phase I dose escalation and dose expansion study, observed PK in cancer patients
# Type: in vivo
# condition description: human, plasma, multiple oral dose 13.5 mg, geometric mean, read-out: Observed AUCss
# Experimental: The pemigatinib PBPK model was developed from healthy volunteer was used to describe cancer patients PK data from phase I dose escalation and dose expansion study (6-20 mg). The model was used to predict pemigatinib plasma concentration-time curves in cancer patients after multiple oral dose of 6, 9, 13.5 and 20 mg pemigatinib because only one patient was dosed for 1, 2 and 4 mg, respectively.
endpoint: AUC (µM·h)

compound="CCN1C(=O)N(c2c(F)c(OC)cc(OC)c2F)Cc2cnc3[nH]c(CN4CCOCC4)cc3c21 [Pemigatinib]" endpoint=AUC readout_value=2.6

---

# protocol text: clinical
# condition description: human, plasma, po, 13.5 mg
endpoint: Cmax (nM)

sample_smiles=CCN1C(=O)N(c2c(F)c(OC)cc(OC)c2F)Cc2cnc3[nH]c(CN4CCOCC4)cc3c21 readout_value=187

---

# protocol text: clinical
# condition description: human, plasma, oral, 4.5 mg
endpoint: Cmax (nM)

molecule="CCN1C(=O)N(c2c(F)c(OC)cc(OC)c2F)Cc2cnc3[nH]c(CN4CCOCC4)cc3c21 [Pemigatinib]" readout_value=55.2

---

# protocol text: Phase I dose escalation and dose expansion study, observed PK in cancer patients
# Format: in vivo
# condition description: human, plasma, multiple oral dose 9 mg, geometric mean, read-out: Observed AUCss
endpoint: AUC (µM·h)

compound="CCN1C(=O)N(c2c(F)c(OC)cc(OC)c2F)Cc2cnc3[nH]c(CN4CCOCC4)cc3c21 [Pemigatinib]" endpoint=AUC readout_value=1.51

---

# protocol text: clinical
# condition description: human, plasma, oral, 4.5 mg
endpoint: Tmax (h)

compound="CCN1C(=O)N(c2c(F)c(OC)cc(OC)c2F)Cc2cnc3[nH]c(CN4CCOCC4)cc3c21 [Pemigatinib]" value_units=h readout_value=2

---

# protocol text: Phase I dose escalation and dose expansion study, observed PK in cancer patients
# Format: in vivo
# condition description: human, plasma, multiple oral dose 9 mg, geometric mean, read-out: Observed Cmax, ss
endpoint: Cmax (nM)

sample_smiles=CCN1C(=O)N(c2c(F)c(OC)cc(OC)c2F)Cc2cnc3[nH]c(CN4CCOCC4)cc3c21 readout_value=161

---

# protocol text: Phase 1 drug-drug interaction study: single-dose pemigatinib PK alone or with itraconazole or rifampin
# condition description: read-out: Observed Cmax; single oral 13.5 mg, geometric mean
endpoint: Cmax

sample_smiles=CCN1C(=O)N(c2c(F)c(OC)cc(OC)c2F)Cc2cnc3[nH]c(CN4CCOCC4)cc3c21 endpoint=Cmax readout_value="158 nM"

---

# protocol text: clinical
# condition description: human, plasma, oral, 4.5 mg
endpoint: Vd/F

compound="CCN1C(=O)N(c2c(F)c(OC)cc(OC)c2F)Cc2cnc3[nH]c(CN4CCOCC4)cc3c21 [Pemigatinib]" endpoint=Vd/F readout_value="244 L"

---

# protocol text: clinical
# condition description: human, plasma, po, 4.5 mg
endpoint: AUC (µM·h)

sample_smiles=CCN1C(=O)N(c2c(F)c(OC)cc(OC)c2F)Cc2cnc3[nH]c(CN4CCOCC4)cc3c21 value_units=µM·h readout_value=0.672

---

# protocol text: clinical
# condition description: human, plasma, oral, 13.5 mg
endpoint: Vd/F (L)

sample_smiles=CCN1C(=O)N(c2c(F)c(OC)cc(OC)c2F)Cc2cnc3[nH]c(CN4CCOCC4)cc3c21 value_units=L readout_value=267
